target: UniProtKB P04585
Each entry below carries its reported log10 of IC50.
Heads up: the numbers are on a log10 scale; they represent IC50 in nM.

{"compound": "COC(=O)N[C@H](C(=O)Nc1cnccc1CC[C@@H]1CNC[C@@H](COc2ccc(C#N)cc2)O1)C(c1ccccc1)c1ccccc1", "log10 of IC50": 1.72}
{"compound": "COC(=O)N[C@H](C(=O)Nc1ccccc1CC[C@@H]1CNC[C@@H](CSc2nnc(Cn3nccc3C)o2)O1)C(c1ccccc1)c1ccccc1", "log10 of IC50": -0.17}
{"compound": "COC(=O)N[C@H](C(=O)NCCCC1CNC[C@@H](CCc2ccc(Cl)cc2)O1)C(c1ccccc1)c1ccccc1 (stereo partly drawn)", "log10 of IC50": 3.00}

Reported log10 of IC50, compound COC(=O)N[C@H](C(=O)Nc1ccccc1CCC1CNC[C@@H](COc2ccccc2-c2cc[nH]n2)O1)C(c1ccccc1)c1ccccc1 (stereo in doubt) : ____
2.40

COC(=O)N[C@H](C(=O)Nc1ccccc1CC[C@@H]1CNC[C@@H](CSc2ncccc2Cl)O1)C(c1ccccc1)c1ccccc1 , same question.
-0.03

Same lookup for COC(=O)N[C@H](C(=O)Nc1ccccc1CC[C@@H]1CNC[C@@H](CSc2ccc(S(C)(=O)=O)cc2)O1)C(c1ccccc1)c1ccccc1 , please.
-0.07

Also check COC(=O)N[C@H](C(=O)Nc1ccccc1CC[C@@H]1CNC[C@@H](COc2ccc(C(F)(F)F)cc2)O1)C(c1ccccc1)c1ccccc1
1.15

Another: COC(=O)N[C@H](C(=O)Nc1cc(F)ccc1CC[C@@H]1CNC[C@@H](COc2ccc(C#N)cc2)O1)C(c1ccccc1)c1ccccc1
1.36

Can you check COC(=O)N[C@H](C(=O)Nc1cncnc1CC[C@@H]1CNC[C@@H](COc2ccc(C#N)cc2)O1)C(c1ccccc1)c1ccccc1 next?
2.08

COC(=O)N[C@H](C(=O)Nc1ccccc1CC[C@@H]1CNC[C@@H](CS(=O)(=O)c2ccc(Cl)cc2)O1)C(c1ccccc1)c1ccccc1 ?
2.04

Proceed to COC(=O)N[C@H](C(=O)Nc1c(F)cccc1CC[C@@H]1CNC[C@@H](CSc2nc3cc(F)c(Cl)cc3[nH]2)O1)C(c1ccccc1)c1ccccc1
1.04

Also COC(=O)N[C@H](C(=O)Nc1ccccc1CC[C@@H]1CNC[C@@H](CCc2ccc(C#N)cc2)O1)C(c1ccccc1)c1ccccc1 ?
0.94

###

target: wildtype HIV-1 protease (Human immunodeficiency virus type 1 group M subtype B, UniProt P04585)
Below, each entry is listed alongside its reported IC50.
A number alone suffices; assume µM.

Reference set (4 entries):
{"molecule": "COC(=O)N[C@H](C(=O)Nc1ccccc1CC[C@@H]1CNC[C@@H](COc2ccccc2F)O1)C(c1ccccc1)c1ccccc1 [Example 49]", "reportedEndpoint": "IC50", "reported": 0.014}
{"molecule": "COC(=O)N[C@H](C(=O)Nc1ccccc1CC[C@@H]1CNC[C@@H](COc2cccc3ncccc23)O1)C(c1ccccc1)c1ccccc1 [Example 51]", "reportedEndpoint": "IC50", "reported": 0.014}
{"molecule": "COC(=O)N[C@H](C(=O)Nc1ccccc1CC[C@@H]1CNC[C@@H](COc2ccc(S(N)(=O)=O)cc2)O1)C(c1ccccc1)c1ccccc1 [Example 55]", "reportedEndpoint": "IC50", "reported": 0.012}
{"molecule": "COC(=O)N[C@H](C(=O)Nc1ccccc1CC[C@@H]1CNC[C@@H](COc2ccc(-c3ccccc3)cc2)O1)C(c1ccccc1)c1ccccc1 [Example 11]", "reportedEndpoint": "IC50", "reported": 0.0066}

# ---- query molecule ----
Please report the recorded IC50 for COC(=O)N[C@H](C(=O)Nc1cccc(F)c1CC[C@@H]1CNCC2(CCN(S(C)(=O)=O)CC2)O1)[C@@H](c1ccc(Cl)cc1)c1cc(F)cc(F)c1 [Example 94] .
0.011

###

Below, each entry is listed with its recorded pIC50.
target: wildtype HIV-1 protease (Human immunodeficiency virus type 1 group M subtype B)
pIC50 here: minus log base 10 of the concentration, concentration in moles per litre.

Solved entries (count: 4):
{"smilesString": "COC(=O)N[C@H](C(=O)Nc1ccccc1CC[C@@H]1CNC[C@@H](c2nc3cc(C)c(C)cc3[nH]2)O1)C(c1ccccc1)c1ccccc1", "pIC50": 6.07}
{"smilesString": "COC(=O)N[C@H](C(=O)Nc1ccccc1CC[C@@H]1CNC[C@@H](CSc2cccc(Cl)c2)O1)C(c1ccccc1)c1ccccc1", "pIC50": 8.72}
{"smilesString": "COC(=O)N[C@H](C(=O)Nc1ccccc1CC[C@@H]1CNC[C@@H](C(F)(F)Cc2ccc(Br)cc2)O1)C(c1ccccc1)c1ccccc1", "pIC50": 7.30}
{"smilesString": "COC(=O)N[C@H](C(=O)Nc1cccc(F)c1CC[C@@H]1CNC[C@@H](COc2ccc(C#N)cc2)O1)C(c1ccccc1)c1ccccc1", "pIC50": 8.13}

pIC50 for COC(=O)N[C@H](C(=O)Nc1n[nH]cc1CC[C@@H]1CNC[C@@H](COc2ccc(S(C)(=O)=O)cc2)O1)C(c1ccccc1)c1ccccc1 ?
6.43

Another compound to check: N[C@H](C(=O)Nc1cccc(F)c1CC[C@@H]1CNC[C@@H](COC(=O)NCC(F)(F)F)O1)C(c1ccc(F)cc1)c1ccc(F)cc1
7.82

Also check COC(=O)N[C@H](C(=O)Nc1ccccc1CC[C@@H]1CNC[C@@H](CSc2ncnc3[nH]ncc23)O1)C(c1ccccc1)c1ccccc1
8.68

Next: COC(=O)N[C@H](C(=O)Nc1cc(F)cnc1CC[C@@H]1CNC[C@@H](COc2ccc(C#N)cc2)O1)C(c1ccccc1)c1ccccc1
6.82

And what about the compound N[C@H](C(=O)Nc1cncc(F)c1CC[C@@H]1CNC[C@@H](CO)O1)C(c1ccc(F)cc1)c1ccc(F)cc1 ?
6.42
